I'd be grateful if you could share measured recombinant UMI read abundance (log10) for these entries.
# protocolNotes: recombinant UMI read abundance after kanamycin selection (control-corrected) (log10(CPM+1)); higher = more efficient recombination; extreme values may be limits of the assay; sequences stand for … in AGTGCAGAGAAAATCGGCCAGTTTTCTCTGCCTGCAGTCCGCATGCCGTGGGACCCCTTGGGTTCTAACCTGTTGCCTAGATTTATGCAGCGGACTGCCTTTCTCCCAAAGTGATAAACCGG…AGGTTGGTTTCACT; site = the 11-nt donor
Answers are plain numbers.

Sample records with recombinant UMI read abundance (log10):
polymerSequence	measuredEndpoint	numericReadout
GGAGTGGCATGGACCGGTTTTCCCGGTAATCCGTATTTGGC (site GGAGTGGCTCC)	recombinant UMI read abundance (log10)	0.101
TATTCTGCATGGACCGGTTTTCCCGGTAATCCGTATTTGGA (site TATTCTGCTTC)	recombinant UMI read abundance (log10)	0.603

Would you mind giving recombinant UMI read abundance (log10) for every sequence in the list below?
1. AGCCTTTCATGGACCGGTTTTCCCGGTAATCCGTATTTGAG (site AGCCTTTCTGT)
2. TTAGCGGCATGGACCGGTTTTCCCGGTAATCCGTATTTGCT (site TTGGCGGCTAG)

1: 0; 2: 0

Give recombinant UMI read abundance (log10) for each of the items listed below.
1. AGGACGACATGGACCGGTTTTCCCGGTAATCCGTATTTGCA (site AGGATGACTTG)
2. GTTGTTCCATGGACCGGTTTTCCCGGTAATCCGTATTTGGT (site GTTGTTCCTAA)
3. CAGTCGTCATGGACCGGTTTTCCCGGTAATCCGTATTTGGG (site CAGTCGCCTCC)
4. CGAGCCTCATGGACCGGTTTTCCCGGTAATCCGTATTTGGC (site CGAGCCTCTGC)
5. CCGTTTACATGGACCGGTTTTCCCGGTAATCCGTATTTGGT (site CCGTTTACTAC)

[0.853, 0.00913, 0.0207, 2.21, 0.279]

----------
# protocolNotes: recombinant UMI read abundance after kanamycin selection (control-corrected) (log10(CPM+1)); higher = more efficient recombination; extreme values may be limits of the assay; sequences stand for … in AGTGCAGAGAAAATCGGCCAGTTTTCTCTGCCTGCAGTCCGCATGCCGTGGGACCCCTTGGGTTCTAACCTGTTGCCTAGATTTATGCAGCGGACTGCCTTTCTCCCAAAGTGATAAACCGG…AGGTTGGTTTCACT; site = the 11-nt donor
measuredEndpoint: recombinant UMI read abundance (log10)
Numbers only.

polymerSequence	recombinant UMI read abundance (log10)
CTAGACTCATGGACCGGTTTTCCCGGTAATCCGTATTTGCT (site CTAGACTCTAG)	3.32
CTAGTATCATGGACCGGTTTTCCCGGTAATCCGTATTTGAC (site CCGGTATCTGT)	0.281
GTATTGACATGGACCGGTTTTCCCGGTAATCCGTATTTGTG (site GTATTGACTCA)	1.4
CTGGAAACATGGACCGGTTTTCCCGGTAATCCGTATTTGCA (site CTGGAAACTTC)	0
CTACGAACATGGACCGGTTTTCCCGGTAATCCGTATTTGGA (site CTACGAACTTC)	1.91
GCTCCAACATGGACCGGTTTTCCCGGTAATCCGTATTTGAA (site GCTCCAACTTT)	0.939
TTGCTAGCATGGACCGGTTTTCCCGGTAATCCGTATTTGAA (site TAGCTAGCTTT)	0.016
TCACACTCATGGACCGGTTTTCCCGGTAATCCGTATTTGCA (site TCAAACTCTTG)	0

Let's switch to this sequence now.
Suppose we examine the sequence GAAGATTCATGGACCGGTTTTCCCGGTAATCCGTATTTGGT (site GAAGATTCTAA) ; what recombinant UMI read abundance (log10) value has been reported?
0.995

----------
Exercise: for every item that follows, state its recorded recombinant barcode read abundance (log10).
# protocolNotes: recombinant barcode read abundance after kanamycin selection (control-corrected) (log10(CPM+1)); higher = more efficient recombination; sequences stand for … in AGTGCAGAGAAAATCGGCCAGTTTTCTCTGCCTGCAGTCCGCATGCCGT…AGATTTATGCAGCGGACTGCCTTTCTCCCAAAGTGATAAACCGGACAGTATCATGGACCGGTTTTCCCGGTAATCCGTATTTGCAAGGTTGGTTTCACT; site = the 11-nt target
Answers are plain numbers.

polymerSequence	numericReadout
TATTGGACTTGGGTTCTAACCTGTTGCTT (site TATTGGACTAA)	0.141
TGGTACGCTTGGGTTCTAACCTGTTGCCT (site TGGTCCGCTAG)	0.235
CGAATCACTTGGGTTCTAACCTGTTGCCT (site CGAATCCCTAG)	0.062
AGTCTAGCTTGGGTTCTAACCTGTTGCCA (site AGTCTAGCTGG)	0.548
TGCCGACCTTGGGTTCTAACCTGTTGCCT (site TGCCGACCTAG)	0.321

Hi! Can you tell me recombinant barcode read abundance (log10) for each of these sequences?
1. AGTCTGCCTTGGGTTCTAACCTGTTGCCT (site TGTCTGCCTAG)
2. CTACGCTCTTGGGTTCTAACCTGTTGCGA (site CTAGGCTCTCC)
3. GTCTCATCTTGGGTTCTAACCTGTTGCCT (site GTCTGATCTAG)

1: 0.0318; 2: 0.452; 3: 0.0892

Batch request: recombinant barcode read abundance (log10) for each of the following sequences.
1. AAGAGCACTTGGGTTCTAACCTGTTGCCT (site AAGAGCACTAG)
2. CACCAACCTTGGGTTCTAACCTGTTGCCT (site CACCAACCTAG)

1. 1.17
2. 0.313

----------
# protocolNotes: recombinant barcode read abundance after kanamycin selection (control-corrected) (log10(CPM+1)); higher = more efficient recombination; sequences stand for … in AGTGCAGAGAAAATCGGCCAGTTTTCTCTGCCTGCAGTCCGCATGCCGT…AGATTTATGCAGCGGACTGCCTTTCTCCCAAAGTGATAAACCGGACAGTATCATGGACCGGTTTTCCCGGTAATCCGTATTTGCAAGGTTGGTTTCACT; site = the 11-nt target
measuredEndpoint: recombinant barcode read abundance (log10)

Below are worked cases with known answers.
polymerSequence	result
CAAACTACTTGGGTTCTAACCTGTTGCCA (site CAAACTACTTG)	0.0171
CCATATGCTTGGGTTCTAACCTGTTGCCT (site AACACGACTGA)	0.0524
CTACGTCCTTGGGTTCTAACCTGTTGCTC (site CTACGTCCTGA)	0.91
ATACGTCCTTGGGTTCTAACCTGTTGCAT (site ATACGTCCTAT)	1.12
TCTAGACCTTGGGTTCTAACCTGTTGCCT (site TCTAGAACTAG)	0
AATCTCCCTTGGGTTCTAACCTGTTGCCT (site AATATGCCTAG)	0.298
CGTGGTCCTTGGGTTCTAACCTGTTGCAT (site CGTGGTCCTAA)	0.414
CGCTGATCTTGGGTTCTAACCTGTTGCCT (site TGCTGATCTAG)	0.0802

Hi, could you look up recombinant barcode read abundance (log10) for each item in my list?
1. GGTAAAGCTTGGGTTCTAACCTGTTGCCT (site GGTAAAGCTAG)
2. CGGATAGCTTGGGTTCTAACCTGTTGCCT (site CGGATTGCTAG)
3. TTGGCCTCTTGGGTTCTAACCTGTTGCCT (site TTGGCCTCTAG)
4. GACACAGCTTGGGTTCTAACCTGTTGCCT (site GAAACAGCTAG)
5. GGGTCCTCTTGGGTTCTAACCTGTTGCCA (site GGGTCCTCTAG)
6. CCTTTGACTTGGGTTCTAACCTGTTGCTT (site CCTTTGACTAA)

1. 0.71
2. 0.553
3. 1.27
4. 0.145
5. 1.69
6. 0.0825

----------
# protocolNotes: recombinant barcode read abundance after kanamycin selection (control-corrected) (log10(CPM+1)); higher = more efficient recombination; sequences stand for … in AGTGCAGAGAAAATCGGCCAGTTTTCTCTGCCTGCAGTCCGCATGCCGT…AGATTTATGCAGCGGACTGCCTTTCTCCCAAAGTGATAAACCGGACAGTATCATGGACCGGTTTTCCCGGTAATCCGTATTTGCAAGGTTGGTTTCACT; site = the 11-nt target
Provide the recorded recombinant barcode read abundance (log10) for the entries that follow.

Reference set (5 entries):
polymerSequence	result
CCTTGAGCTTGGGTTCTAACCTGTTGCTG (site CCTTGAGCTCA)	0.308
AAACGGTCTTGGGTTCTAACCTGTTGCTA (site AAACGGTCTTA)	1.53
AGCCCGCCTTGGGTTCTAACCTGTTGCCT (site CGCCCGCCTAG)	0.39
GTAAGTCCTTGGGTTCTAACCTGTTGCAG (site GTAAGTCCTCT)	1.97
CTGTCTCCTTGGGTTCTAACCTGTTGCCT (site ATGTCTCCTAG)	0.221

Consider the following items and state reported recombinant barcode read abundance (log10) for each.
1. GGAGTCCCTTGGGTTCTAACCTGTTGCGA (site GGAGTCCCTTC)
2. GACCTCCCTTGGGTTCTAACCTGTTGCTG (site GACCTCCCTCA)
3. CGAACTACTTGGGTTCTAACCTGTTGCTT (site CGAACTACTAA)
4. GGACCTCCTTGGGTTCTAACCTGTTGCAT (site GGACCTCCTAA)
5. CAAATTACTTGGGTTCTAACCTGTTGCCT (site CAGATGACTAG)

2.39
2.16
0.142
0.342
0.161
